Biological target: T1, REF6 Y1282A (Arabidopsis thaliana, UniProt Q9STM3 1223-1360, Y1282A)
T1 sequence: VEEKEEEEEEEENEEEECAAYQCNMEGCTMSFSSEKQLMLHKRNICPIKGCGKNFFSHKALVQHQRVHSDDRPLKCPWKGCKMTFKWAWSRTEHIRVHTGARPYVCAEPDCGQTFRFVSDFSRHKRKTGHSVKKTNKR
Experiment: MST; MST: 20 mM HEPES pH 7.3, 150 mM NaCl, 0.2 mM TCEP, 0.5% CA-630, 25 C; EMSA: 30 uM protein, 10 uM dsDNA, 20 mM Tris pH 8.0, 100 mM NaCl, 2.5 mM MgCl2, 0.1% CA-630, 10% glycerol, 1 uM ZnSO4, 1 mM DTT, 4 C
Settings: protein: recombinant; tags: His6-MBP or GST, TEV-cleavable; label: FAM in MST; none in crystal and EMSA; 5' overhang 1 nt on both strands, 15 bp
METRIC_NAME: pKd
Numbers only, as −log10 of the molar value.

pKd measured on NAC004 m5 (dsDNA) DNA 1: CTTTCTCTGTTTTGTC DNA 2: GGACAAAACAGAGAAA = 5.96
